System Tested: Solute carrier family 2, facilitated glucose transporter member 1 (Homo sapiens) (UniProt P11166)
Sequence (P11166 whole entry): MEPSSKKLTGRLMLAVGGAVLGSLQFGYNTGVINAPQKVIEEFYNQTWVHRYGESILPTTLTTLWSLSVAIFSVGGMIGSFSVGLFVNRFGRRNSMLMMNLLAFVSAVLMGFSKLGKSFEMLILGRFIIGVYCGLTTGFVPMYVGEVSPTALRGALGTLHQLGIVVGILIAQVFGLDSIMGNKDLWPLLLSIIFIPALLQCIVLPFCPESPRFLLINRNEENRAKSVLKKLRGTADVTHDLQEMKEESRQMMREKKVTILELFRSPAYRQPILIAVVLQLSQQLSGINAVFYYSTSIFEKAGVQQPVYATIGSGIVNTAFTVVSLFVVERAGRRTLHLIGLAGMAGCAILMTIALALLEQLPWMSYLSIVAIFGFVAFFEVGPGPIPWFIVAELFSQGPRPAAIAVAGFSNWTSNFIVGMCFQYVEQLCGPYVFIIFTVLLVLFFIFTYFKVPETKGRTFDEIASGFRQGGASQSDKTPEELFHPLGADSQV
Test: ST_JUDE_LEISH: Cytotoxicity at 2uM final concentration against transgenic Leishmania Mexicana promastigotes LmGLUT1 that are glucose transport deficient and complemented with the human glucose transporter GLUT1. Activity is measured by DNA content using SYBR green in vitro
Type: functional
Test Readout: inhibition (%)
Give bare numbers, in %.

Study these solved cases before continuing.
CN(CCN1CCCC1)c1nc2cc(-n3cnc4cc(-c5ccc(Cl)cc5)sc4c3=O)ccc2[nH]1 | 0.93
Cc1cc(-c2cccc(CNCCc3ccc(Cl)cc3)c2)cnc1N | 6.5
C#CCCC(=O)Nc1cccc(-c2cccc(-c3nc4cccc(C)c4[nH]3)c2)c1 | 3.2
CCCCCCCCc1nc(C)c(Br)c(O)c1Br | 3.91
Cc1cc(N/N=C/c2cccc([N+](=O)[O-])c2)c2ccccc2n1 | 1.39
Oc1cccc(Nc2ccnc3cc(-c4cc5ccccc5o4)ccc23)c1 | -0.71
c1cc(CN2CCC(CCN3CCCCC3)CC2)cc(-c2csc(-c3nc4ccccc4[nH]3)c2)c1 | 7.93
COc1ccc(NC(=O)NC2CCN(c3ccnc4cc(Cl)ccc34)C2)cc1 (stereo not given) | 4.89
Nc1nccc2ccc(-c3ccc(NC(=O)Nc4cc(C(F)(F)F)ccc4F)cc3)cc12 | 0.91
CCCNC(=O)CN1CN(c2ccccc2)C2(CCN(C(=O)c3ccc(C(C)(C)C)cc3)CC2)C1=O | -0.42

Each compound below has a reported value. Please supply its inhibition.
1. CCc1nc(N)nc(N)c1-c1ccc(F)cc1
2. CC(=O)Oc1c(C2C=CCCC2)c(OC(C)=O)c2ccccc2c1OC(C)=O (stereo not given)
3. Cc1c(CNCCCNc2nc3cscc3[nH]2)sc(C(F)F)c1Br

6.27
1.04
6.65

Each compound below has a reported value. Please supply its inhibition.
1. O=C(Nc1cccc(-c2nn3ccccc3c2-c2ccnc(Nc3ccc(C(=O)N4CCOCC4)cc3)n2)c1)c1c(F)cccc1F
2. CS(=O)(=O)c1ccc(CNCc2ccc(-c3ccc(-c4nc5cc(C(F)(F)F)ccc5[nH]4)s3)cc2)cc1
3. Cc1cc(NC(=O)NCCN2CCC(NS(=O)(=O)c3cccc(Br)c3)C2)c2ccccc2n1 (stereo not given)
4. CC(=O)N(C)c1cccc(CNc2cc(C)nc(Nc3ccc(C)cc3)n2)c1
5. CC[C@H](NC(=O)c1c(CCCN2CCN(c3ccccc3)CC2)c(-c2ccccc2)nc2cc(O)ccc12)c1ccccc1
6. [O-][s+]1nc(NCCCN(Cc2cccs2)c2ccccn2)c(NCc2ccccc2)n1 (stereo not given)
7. CCCCC(CC)CN1C(=O)C(c2ccccc2)(c2ccccc2)N=C1N (stereo not given)

[23.1, 12, 1.93, 4.41, 7.88, -1.34, -0.17]

The origin of these recorded values is ChEMBL document CHEMBL3433997.
